// provenance: ChEMBL document CHEMBL2062418

Molecular target: Cannabinoid receptor 1 (Rattus norvegicus, UniProt P20272)
Sequence (P20272 whole entry): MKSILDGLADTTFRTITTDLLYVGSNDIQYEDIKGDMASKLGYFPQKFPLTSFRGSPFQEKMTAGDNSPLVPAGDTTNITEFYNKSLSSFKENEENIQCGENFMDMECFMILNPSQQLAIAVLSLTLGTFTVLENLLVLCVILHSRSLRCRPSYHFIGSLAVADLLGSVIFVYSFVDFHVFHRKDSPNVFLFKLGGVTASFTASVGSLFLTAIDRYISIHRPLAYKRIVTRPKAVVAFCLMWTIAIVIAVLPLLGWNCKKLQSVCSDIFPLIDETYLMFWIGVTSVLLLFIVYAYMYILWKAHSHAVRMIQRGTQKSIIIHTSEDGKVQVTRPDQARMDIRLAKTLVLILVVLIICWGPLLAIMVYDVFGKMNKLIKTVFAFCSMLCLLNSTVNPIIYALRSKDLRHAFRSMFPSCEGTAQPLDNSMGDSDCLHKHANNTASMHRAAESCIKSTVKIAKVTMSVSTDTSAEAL
pKi: −log10 of the molar value.
Entries and their measured pKi follow.

| COMPOUND STRUCTURE STRING | QUALIFYING SIGN | pKi |
| --- | --- | --- |
| CC1(C)Oc2cc(C(=O)c3cccc(F)c3)cc(O)c2[C@@H]2C[C@H](O)CC[C@H]21 | = | 6.34 |
| Cn1cc(C(=O)c2cc(O)c3c(c2)OC(C)(C)[C@@H]2CC[C@@H](O)C[C@@H]32)c2ccccc21 | = | 5.49 |
| CC1(C)Oc2cc(C(=O)c3cscn3)cc(O)c2[C@@H]2C[C@H](O)CC[C@H]21 | < | 6.00 |
| CC1(C)Oc2cc(C(=O)c3ccccc3)cc(O)c2[C@@H]2C[C@H](O)CC[C@H]21 | = | 6.01 |
| CC1(C)Oc2cc(C(=O)c3cccc(C(F)(F)F)c3)cc(O)c2[C@@H]2C[C@H](O)CC[C@H]21 | = | 7.21 |
| CC1(C)Oc2cc(C(=O)c3cc4ccccc4o3)cc(O)c2[C@@H]2C[C@H](O)CC[C@H]21 | = | 5.87 |
| CC1(C)Oc2cc(C(=O)c3ccncc3F)cc(O)c2[C@@H]2C[C@H](O)CC[C@H]21 | < | 6.00 |
| CC1(C)Oc2cc(C(=O)c3cncs3)cc(O)c2[C@@H]2C[C@H](O)CC[C@H]21 | < | 6.00 |
| CC1(C)Oc2cc(C(=O)c3ccoc3)cc(O)c2[C@@H]2C[C@H](O)CC[C@H]21 | < | 6.00 |
| CC1(C)Oc2cc(C(=O)c3cc4ccccc4s3)cc(O)c2[C@@H]2C[C@H](O)CC[C@H]21 | = | 6.81 |
| CC1(C)Oc2cc(C(=O)c3ccccn3)cc(O)c2[C@@H]2C[C@H](O)CC[C@H]21 | < | 6.00 |

----------
pKi: −log10 of the molar value.
Record set of pKi for target or system Cannabinoid receptor 1 (Rattus norvegicus, UniProt P20272).
READOUT: pKi

| COMPOUND STRUCTURE STRING | TARGET SYSTEM | READOUT | QUALIFYING SIGN | VAL |
| --- | --- | --- | --- | --- |
| CC1(C)Oc2cc(C(=O)c3cccs3)cc(O)c2[C@@H]2C[C@H](O)CC[C@H]21 | Cannabinoid receptor 1 (Rattus norvegicus, UniProt P20272) | pKi | < | 6.00 |
| CC1(C)Oc2cc(C(=O)c3ccsc3)cc(O)c2[C@@H]2C[C@H](O)CC[C@H]21 | Cannabinoid receptor 1 (Rattus norvegicus, UniProt P20272) | pKi | = | 5.98 |
| CC1(C)Oc2cc(C(=O)c3coc4ccccc34)cc(O)c2[C@@H]2C[C@H](O)CC[C@H]21 | Cannabinoid receptor 1 (Rattus norvegicus, UniProt P20272) | pKi | = | 5.54 |
| CC1(C)Oc2cc(C(=O)c3csc4ccccc34)cc(O)c2[C@@H]2C[C@H](O)CC[C@H]21 | Cannabinoid receptor 1 (Rattus norvegicus, UniProt P20272) | pKi | = | 5.90 |
| CC1(C)Oc2cc(C(=O)c3ccncc3)cc(O)c2[C@@H]2C[C@H](O)CC[C@H]21 | Cannabinoid receptor 1 (Rattus norvegicus, UniProt P20272) | pKi | < | 6.00 |
| CC1(C)Oc2cc(C(=O)c3cccnc3)cc(O)c2[C@@H]2C[C@H](O)CC[C@H]21 | Cannabinoid receptor 1 (Rattus norvegicus, UniProt P20272) | pKi | < | 6.00 |
| CC1(C)Oc2cc(C(=O)c3c[nH]c4ccccc34)cc(O)c2[C@@H]2C[C@H](O)CC[C@H]21 | Cannabinoid receptor 1 (Rattus norvegicus, UniProt P20272) | pKi | = | 5.98 |
| CC1(C)Oc2cc(C(=O)c3ccco3)cc(O)c2[C@@H]2C[C@H](O)CC[C@H]21 | Cannabinoid receptor 1 (Rattus norvegicus, UniProt P20272) | pKi | < | 6.00 |

----------
Target: Cannabinoid receptor 2 (Mus musculus)
Sequence (P47936 whole entry): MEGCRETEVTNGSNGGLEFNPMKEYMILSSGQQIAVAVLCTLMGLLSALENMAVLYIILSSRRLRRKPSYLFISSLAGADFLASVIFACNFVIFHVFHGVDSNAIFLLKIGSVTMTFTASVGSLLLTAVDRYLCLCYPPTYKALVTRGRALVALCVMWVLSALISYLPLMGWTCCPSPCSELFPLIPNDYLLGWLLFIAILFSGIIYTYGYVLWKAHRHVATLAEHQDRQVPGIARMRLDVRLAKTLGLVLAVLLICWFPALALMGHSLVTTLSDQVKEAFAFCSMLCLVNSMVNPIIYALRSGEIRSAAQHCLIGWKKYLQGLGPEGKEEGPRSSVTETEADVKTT
Assay: Displacement of [3H]CP-55,940 from mouse CB2 receptor expressed in HEK293 cells
Assay type: cell-based
pKi: −log10 of the molar value.
Label class 1 when pKi >= 7; otherwise class 0.

| COMPOUND STRUCTURE STRING | TARGET SYSTEM | CLASS NAME |
| --- | --- | --- |
| CC1(C)Oc2cc(C(=O)c3ccsc3)cc(O)c2[C@@H]2C[C@H](O)CC[C@H]21 | Cannabinoid receptor 2 (Mus musculus) | class 0 |
| CC1(C)Oc2cc(C(=O)c3cccc(F)c3)cc(O)c2[C@@H]2C[C@H](O)CC[C@H]21 | Cannabinoid receptor 2 (Mus musculus) | class 0 |
| CC1(C)Oc2cc(C(=O)c3cccs3)cc(O)c2[C@@H]2C[C@H](O)CC[C@H]21 | Cannabinoid receptor 2 (Mus musculus) | class 0 |
| CC1(C)Oc2cc(C(=O)c3ccoc3)cc(O)c2[C@@H]2C[C@H](O)CC[C@H]21 | Cannabinoid receptor 2 (Mus musculus) | class 0 |
| CC1(C)Oc2cc(C(=O)c3cccc(C(F)(F)F)c3)cc(O)c2[C@@H]2C[C@H](O)CC[C@H]21 | Cannabinoid receptor 2 (Mus musculus) | class 1 |
| CC1(C)Oc2cc(C(=O)c3cncs3)cc(O)c2[C@@H]2C[C@H](O)CC[C@H]21 | Cannabinoid receptor 2 (Mus musculus) | class 0 |
| CC1(C)Oc2cc(C(=O)c3ccncc3)cc(O)c2[C@@H]2C[C@H](O)CC[C@H]21 | Cannabinoid receptor 2 (Mus musculus) | class 0 |
| CC1(C)Oc2cc(C(=O)c3ccccc3)cc(O)c2[C@@H]2C[C@H](O)CC[C@H]21 | Cannabinoid receptor 2 (Mus musculus) | class 0 |
| CC1(C)Oc2cc(C(=O)c3cccnc3)cc(O)c2[C@@H]2C[C@H](O)CC[C@H]21 | Cannabinoid receptor 2 (Mus musculus) | class 0 |
| CC1(C)Oc2cc(C(=O)c3c[nH]c4ccccc34)cc(O)c2[C@@H]2C[C@H](O)CC[C@H]21 | Cannabinoid receptor 2 (Mus musculus) | class 1 |
| CC1(C)Oc2cc(C(=O)c3coc4ccccc34)cc(O)c2[C@@H]2C[C@H](O)CC[C@H]21 | Cannabinoid receptor 2 (Mus musculus) | class 0 |
| CC1(C)Oc2cc(C(=O)c3ccco3)cc(O)c2[C@@H]2C[C@H](O)CC[C@H]21 | Cannabinoid receptor 2 (Mus musculus) | class 0 |
| Cn1cc(C(=O)c2cc(O)c3c(c2)OC(C)(C)[C@@H]2CC[C@@H](O)C[C@@H]32)c2ccccc21 | Cannabinoid receptor 2 (Mus musculus) | class 0 |
| CC1(C)Oc2cc(C(=O)c3ccncc3F)cc(O)c2[C@@H]2C[C@H](O)CC[C@H]21 | Cannabinoid receptor 2 (Mus musculus) | class 0 |
| CC1(C)Oc2cc(C(=O)c3cscn3)cc(O)c2[C@@H]2C[C@H](O)CC[C@H]21 | Cannabinoid receptor 2 (Mus musculus) | class 0 |
| CC1(C)Oc2cc(C(=O)c3ccccn3)cc(O)c2[C@@H]2C[C@H](O)CC[C@H]21 | Cannabinoid receptor 2 (Mus musculus) | class 0 |
| CC1(C)Oc2cc(C(=O)c3csc4ccccc34)cc(O)c2[C@@H]2C[C@H](O)CC[C@H]21 | Cannabinoid receptor 2 (Mus musculus) | class 1 |
